EXPERIMENT: Human HepG2 cell viability assay in 384 well format
Format: toxicity, cell-based
Design: dose 125 nL, time 70.5 hour; concentration not given beside the values
PARTICULARS: HepG2 cells, read-out: Inhibition
ASSAY READOUT: cytotoxicity at 70.5 h (%)
Write the value in % as a bare number.

Enquiry: Entry O=C(c1ncc[nH]1)N1CCC(n2cc(-c3ccccn3)nn2)CC1 : reported cytotoxicity at 70.5 h = ?
Return: 0.522

Enquiry: Also check O=C(C1CCCCC1)N1CCN(Cc2nc(-c3ccco3)no2)CC1
Return: -5.01

Enquiry: Also check Fc1cnc(N2C[C@H]3CCC[C@@]3(COc3ccccn3)C2)nc1
Return: -7.17

Enquiry: Also check Cc1cc(CNc2nccc(N)n2)c2[nH]c(C)c(C)c2c1
Return: 1.64

Enquiry: Also check CSCC(=O)N1C[C@@H](C)[C@](O)(C(C)C)C1
Return: -7.39

Enquiry: Also check Cc1ccccc1CN1CCCN(CCN2CCOC2=O)CC1
Return: -1.61

Enquiry: Also check O=C(NCCc1ccn(-c2ccc(F)cc2)n1)C1CCCO1 (centres undefined)
Return: -5.68

Enquiry: Also check N#Cc1cn(C2CC2)c(=O)n(CC(O)c2ccc(OC(F)F)cc2)c1=O (centres undefined)
Return: -17.5

Enquiry: Also check CCO[C@H]1CC[C@H]2[C@H]1OCCN2C(=O)CC1=CCCCC1
Return: 24

Enquiry: Also check CCOc1nnc(CN2CCCC(c3nc4ccccc4[nH]3)C2)s1 (centres undefined)
Return: -3.56

Enquiry: Also check O=C(c1ccc(S(=O)(=O)NCC(F)F)cc1)N1C[C@H]2CNC[C@H]2C1
Return: -1.24

Enquiry: Also check Cn1nc2c(cc1=O)CN(c1nc3ccccc3s1)CC2
Return: 4.78

Enquiry: Also check O=C1NCCCCC1SCc1coc(-c2cccc(F)c2)n1 (centres undefined)
Return: -5.82

Enquiry: Also check COCCN(CCOC)C(=O)c1ccn(-c2ccc3ccccn23)n1
Return: 11.4

Enquiry: Also check Cc1nc(CN(C)C(=O)C2CCC(=O)N(CCN(C)C)C2)cs1 (centres undefined)
Return: 11.1

Enquiry: Also check COc1ccc(C2CCCN2c2ccc(C#N)cn2)c(OC)c1 (centres undefined)
Return: 4.11

Enquiry: Also check Cc1noc(C)c1-c1nc(C2CCCN(C(=O)CCN)C2)ccc1CO (centres undefined)
Return: -1.78

Enquiry: Also check O=C(O)c1nnn(-c2ccccc2)c1-c1ccncc1
Return: -30.6

Enquiry: Also check CCOC(=O)c1nc(CN2CCN(C(=O)NC3CCCCC3)CC2)cs1
Return: -7.73

Enquiry: Also check COc1ccc2nc(C[C@@H]3C[C@@H](C(C)C)[C@H](CN)C=C3C)[nH]c2n1
Return: -4.84

Enquiry: Also check CCc1nnc2n1CCN(Cc1ncc(-c3ccccc3)o1)C2
Return: -13.5

Enquiry: Also check Cc1c(C(=O)NCCCS(C)(=O)=O)cccc1-c1ccccn1
Return: 7.88

Enquiry: Also check Cc1cc(C)cc(N(CCC#N)C(=O)CN2CCCC2c2cccs2)c1 (centres undefined)
Return: 25.9

Enquiry: Also check Cc1cnc(NC(=O)c2cccc(CN(C)Cc3ccno3)c2)s1
Return: -4.32

====

EXPERIMENT: Human HepG2 cell viability assay in 384 well format
Format: toxicity, cell-based
Design: dose 125 nL, time 70.5 hour; concentration not given beside the values
PARTICULARS: HepG2 cells, read-out: Inhibition
ASSAY READOUT: cytotoxicity at 70.5 h (%)
Write the value in % as a bare number.

Enquiry: Entry O=C(Nc1ccc(OCc2cccc(F)c2)c(F)c1)C1COCCO1 (centres undefined) : reported cytotoxicity at 70.5 h = ?
Return: -3.19

Enquiry: Also check CCc1noc(C)c1C(=O)N1CCCC1Cn1nc(C)cc1C (centres undefined)
Return: -3.58

Enquiry: Also check Cc1ccc(NC2CCN(C(=O)c3cccnc3O)CC2)nn1
Return: 16.5

Enquiry: Also check CCOCCC(=O)N1CCCC(c2ncc[nH]2)C1 (centres undefined)
Return: -0.67

====

EXPERIMENT: Human HepG2 cell viability assay in 384 well format
Type: toxicity, cell-based
Parameters: dose 125 nL, time 70.5 hour; concentration not given beside the values
PARTICULARS: HepG2 cells, read-out: Inhibition
ASSAY READOUT: cytotoxicity at 70.5 h (%)
Write the value in % as a bare number.

Enquiry: Entry CN(C)C(=O)N1C[C@@H]2CC[C@H](C1)N(C(=O)CCCn1cncn1)C2 : reported cytotoxicity at 70.5 h = ?
Return: -10.6

Enquiry: Also check C[C@@H]1CN(CC(C)(C)N2CCOCC2)C[C@@]1(O)C1CC1
Return: -6.35

Enquiry: Also check C[C@H](C(=O)N1Cc2ccccc2CC2(CCCN2C)C1)c1ccccc1 (stereo partly drawn)
Return: -5.49

====

EXPERIMENT: Human HepG2 cell viability assay in 384 well format
Assay type: toxicity, cell-based
Parameters: dose 125 nL, time 70.5 hour; concentration not given beside the values
PARTICULARS: HepG2 cells, read-out: Inhibition
Would you mind telling me the reported cytotoxicity at 70.5 h of each entry?
Write the value in % as a bare number.

Enquiry: Entry O=C(c1ccnnc1)N1C[C@@H]2OCCN(CCN3CCCC3)[C@@H]2C1 : reported cytotoxicity at 70.5 h = ?
Return: 4.4

Enquiry: Also check OCC1CCCN1c1cc(NCc2ccc(Cl)s2)ncn1 (stereo not drawn)
Return: -2.35

Enquiry: Also check COc1ccccc1CC(=O)NCc1ccnc(NC2CC2)c1
Return: -0.149

====

Would you mind telling me the reported cytotoxicity at 70.5 h of each entry?
EXPERIMENT: Human HepG2 cell viability assay in 384 well format
Format: toxicity, cell-based
Set-up: dose 125 nL, time 70.5 hour; concentration not given beside the values
PARTICULARS: HepG2 cells, read-out: Inhibition
Write the value in % as a bare number.

Enquiry: Entry Cc1ncsc1CCC(=O)NCc1csc(N2CCCC2)n1 : reported cytotoxicity at 70.5 h = ?
Return: -6.59

Enquiry: Also check CC(C)c1ncncc1C(=O)N1CCCN(Cc2ccccc2)CC1
Return: -15.3

Enquiry: Also check CC(=O)N[C@@H]1CN(C(=O)c2cnc3ccccc3c2)C[C@H]1O
Return: 10.7

====

EXPERIMENT: Human HepG2 cell viability assay in 384 well format
Assay type: toxicity, cell-based
Parameters: dose 125 nL, time 70.5 hour; concentration not given beside the values
PARTICULARS: HepG2 cells, read-out: Inhibition
Would you mind telling me the reported cytotoxicity at 70.5 h of each entry?
Write the value in % as a bare number.

Enquiry: Entry CN(C)c1ccccc1C(=O)N1C[C@@H](CN2CCCCC2)[C@@H](CO)C1 : reported cytotoxicity at 70.5 h = ?
Return: -3.58

Enquiry: Also check Cc1cc(CN2CCCn3nc(CCC(=O)O)cc3C2)ccc1F
Return: 2.51

Enquiry: Also check CCN(C)C[C@H]1CC[C@@H](Cc2ccc3c(cnn3C)c2)O1
Return: 11.5

====

EXPERIMENT: Human HepG2 cell viability assay in 384 well format
Type: toxicity, cell-based
Set-up: dose 125 nL, time 70.5 hour; concentration not given beside the values
PARTICULARS: HepG2 cells, read-out: Inhibition
ASSAY READOUT: cytotoxicity at 70.5 h (%)
Write the value in % as a bare number.

Enquiry: Entry O=C(c1ccc[nH]1)N1CCC(c2nccn2Cc2ccncc2)CC1 : reported cytotoxicity at 70.5 h = ?
Return: -0.778

Enquiry: Also check CCOc1ccc(CN2CC[C@@](C)(O)[C@@H](Cc3ccccc3)C2)cn1
Return: -1.83

Enquiry: Also check COc1ncc(NCc2cc(C#N)cs2)cc1C(N)=O
Return: -5.52

Enquiry: Also check COc1ccc(CN2CCn3cccc3C2C)cc1F (stereo not given)
Return: -3.79

Enquiry: Also check c1csc(-c2cc(CN3CCN(c4nccs4)CC3)no2)c1
Return: -10.2

Enquiry: Also check O=C1CC(NS(=O)(=O)c2ccc3ccccc3c2)CN1 (stereo not given)
Return: -5.96

Enquiry: Also check COc1ccc(C2CCCN2C(=O)c2cc(C(C)C)on2)cc1 (stereo not given)
Return: -9.05

Enquiry: Also check O=C(c1coc(CN2CCN(c3ccccc3F)CC2)n1)N1CC=CC1
Return: 15.2

Enquiry: Also check Cc1cnc(N2Cc3nccn3CC(Cn3nc(C)nc3C)C2)nc1 (stereo not given)
Return: 0.499

Enquiry: Also check CC(C)c1nn(C)c(N2CCOCC2)c1CNC(C)c1cccs1 (stereo not given)
Return: -1.47

Enquiry: Also check O=C(c1c2c(NCC3CC3)ncnc2n2ccccc12)N1CCCC1
Return: 0.851

Enquiry: Also check Cc1cc(-c2cnc(N(C)C)nc2C2CCCCN2C(=O)C2CC2)on1 (stereo not given)
Return: -3.37

Enquiry: Also check Cc1cc(O)cc2c(=O)oc(CC(C)O)cc12 (stereo not given)
Return: -6.88

Enquiry: Also check Cc1cc(C(=O)NCc2ccc(F)cc2)nc(C2CCCN2C)n1 (stereo not given)
Return: -2.73

Enquiry: Also check CC(=O)NCCCC(=O)N1CCC(Sc2cccc(C)c2)CC1
Return: -12.1

These entries and their values trace back to ChEMBL document CHEMBL3507680.
